tested on: Aβ-42; assay: MSD Human (6E10) Ab 3-PLEX elisa, conditioned media of 2B7 cells: Aβ-42; type: cell-based; conditions: Homo sapiens; Aβ-42, 20 μM
Measured property: inhibition at 20 µM

# Molecule, Measured property, Experimental value
rows = [
    ("C[C@@H]1CC(COC(=O)C2CC2)OC2[C@H]1[C@@]1(C)CC[C@@]34C[C@@]35CC[C@H](O[C@H]3CN(C6COC6)CCO3)C(C)(C)[C@@H]5CCC4[C@]1(C)[C@H]2O (some centres unmarked)", "inhibition at 20 µM", "< 25%"),
    ("C[C@@H]1C[C@H]([C@H](OC(N)=O)C(C)(C)O)O[C@H]2[C@H]1[C@@]1(C)CC[C@@]34C[C@@]35CC[C@H](O[C@H]3CN(C6COC6)CCO3)C(C)(C)[C@@H]5CCC4[C@]1(C)[C@H]2O (some centres unmarked)", "inhibition at 20 µM", "25 to 75%"),
    ("CCOCC1C[C@@H](C)[C@H]2C(O1)[C@H](O)[C@@]1(C)C3CC[C@H]4C(C)(C)C(O[C@H]5CN(C6COC6)CCO5)CC[C@@]45C[C@@]35CC[C@]21C (some centres unmarked)", "inhibition at 20 µM", "< 25%"),
    ("COC(=O)OCC1C[C@@H](C)[C@H]2C(O1)[C@H](O)[C@@]1(C)C3CC[C@H]4C(C)(C)[C@@H](O)CC[C@@]45C[C@@]35CC[C@]21C (some centres unmarked)", "inhibition at 20 µM", "25 to 75%"),
    ("C[C@@H]1CC(C(O)C(C)(C)C)OC2[C@H]1[C@@]1(C)CC[C@@]34C[C@@]35CC[C@H](O)C(C)(C)[C@@H]5CCC4[C@]1(C)[C@H]2O (some centres unmarked)", "inhibition at 20 µM", "25 to 75%"),
    ("COC(=O)O[C@H](C(C)C)C1C[C@@H](C)[C@H]2C(O1)[C@H](O)[C@@]1(C)C3CC[C@H]4C(C)(C)[C@@H](O)CC[C@@]45C[C@@]35CC[C@]21C (some centres unmarked)", "inhibition at 20 µM", "25 to 75%"),
    ("CNC(=O)O[C@@H]([C@H]1C[C@@H](C)[C@H]2[C@H](O1)[C@H](O)[C@@]1(C)C3CC[C@H]4C(C)(C)[C@@H](O)CC[C@@]45C[C@@]35CC[C@]21C)C(C)(C)O (some centres unmarked)", "inhibition at 20 µM", "25 to 75%"),
    ("C[C@@H]1CC(CN(C)C(=O)N(C)C)OC2[C@H]1[C@@]1(C)CC[C@@]34C[C@@]35CC[C@H](O)C(C)(C)[C@@H]5CCC4[C@]1(C)[C@H]2O (some centres unmarked)", "inhibition at 20 µM", "25 to 75%"),
    ("CC(=O)OC(C)(C)C1C[C@@H](C)[C@H]2C(O1)[C@H](O)[C@@]1(C)C3CC[C@H]4C(C)(C)C(OC(=O)N5CCOCC5)CC[C@@]45C[C@@]35CC[C@]21C (some centres unmarked)", "inhibition at 20 µM", "< 25%"),
    ("C[C@@H]1CC(COC(=O)C2CCOCC2)OC2[C@H]1[C@@]1(C)CC[C@@]34C[C@@]35CC[C@H](O[C@H]3CN(C6COC6)CCO3)C(C)(C)[C@@H]5CCC4[C@]1(C)[C@H]2O (some centres unmarked)", "inhibition at 20 µM", "25 to 75%"),
    ("CO[C@H](C(C)C)C1C[C@@H](C)[C@H]2C(O1)[C@H](O)[C@@]1(C)C3CC[C@H]4C(C)(C)[C@@H](O)CC[C@@]45C[C@@]35CC[C@]21C (some centres unmarked)", "inhibition at 20 µM", "25 to 75%"),
]

* * *

Item-by-item account of IC50
tested on: Aβ-38; experiment: MSD Human (6E10) Ab 3-PLEX elisa, conditioned media of 2B7 cells: Aβ-38; assay type: cell-based; conditions: Homo sapiens; Aβ-38 (superscript a); read-out: 50% reduction value

# Molecule, IC50
data = [
    ("CC(=O)OC(C(C)C)C1C[C@@H](C)[C@H]2C(O1)[C@H](O)[C@@]1(C)C3CC[C@H]4C(C)(C)[C@@H](O[C@H]5CNCCO5)CC[C@@]45C[C@@]35CC[C@]21C (stereo partly drawn)", "< 1000 nM"),
    ("CC(C)[C@@H](OC(=O)C1CCC1)C1C[C@@H](C)[C@H]2C(O1)[C@H](O)[C@@]1(C)[C@@H]3CC[C@H]4C(C)(C)C(O)CC[C@@]45C[C@@]35CC[C@]21C (stereo partly drawn)", "< 1000 nM"),
    ("CC(C)[C@@H](OC(N)=O)C1C[C@@H](C)[C@H]2C(O1)[C@H](O)[C@@]1(C)[C@@H]3CC[C@H]4C(C)(C)C(O[C@H]5CNCCO5)CC[C@@]45C[C@@]35CC[C@]21C (stereo partly drawn)", "< 1000 nM"),
    ("CNC(=O)O[C@H](C(C)C)C1C[C@@H](C)[C@H]2C(O1)[C@H](O)[C@@]1(C)C3CC[C@H]4C(C)(C)[C@@H](O[C@H]5CNCCO5)CC[C@@]45C[C@@]35CC[C@]21C (stereo partly drawn)", "< 1000 nM"),
    ("CC(C)[C@@H](OC(=O)N1CCC1)C1C[C@@H](C)[C@H]2C(O1)[C@H](O)[C@@]1(C)C3CC[C@H]4C(C)(C)C(OC(=O)N5CCn6cnnc6C5)CC[C@@]45C[C@@]35CC[C@]21C (stereo partly drawn)", "< 1000 nM"),
    ("CCOC(C)(C)[C@H](O)C1C[C@@H](C)[C@H]2C(O1)[C@H](O)[C@@]1(C)C3CC[C@H]4C(C)(C)C(O)CC[C@@]45C[C@@]35CC[C@]21C (stereo partly drawn)", "1000 to 10000 nM"),
    ("CO[C@@H](C1C[C@@H](C)[C@H]2C(O1)[C@H](O)[C@@]1(C)C3CC[C@H]4C(C)(C)C(OC(=O)NC5COC5)CC[C@@]45C[C@@]35CC[C@]21C)C(C)(C)O (stereo partly drawn)", "< 1000 nM"),
    ("CNC(=O)O[C@H](C(C)C)C1C[C@@H](C)[C@H]2C(O1)[C@H](O)[C@@]1(C)C3CC[C@H]4C(C)(C)C(OC(=O)NC5CNC5)CC[C@@]45C[C@@]35CC[C@]21C (stereo partly drawn)", "< 1000 nM"),
    ("CCO[C@@H]([C@H]1C[C@@H](C)[C@H]2[C@H](O1)[C@H](O)[C@@]1(C)C3CC[C@H]4C(C)(C)C(OC(=O)N5CCC5)CC[C@@]45C[C@@]35CC[C@]21C)C(C)(C)O (stereo partly drawn)", "< 1000 nM"),
    ("CO[C@@H]([C@H]1C[C@@H](C)[C@H]2[C@H](O1)[C@H](O)[C@@]1(C)[C@@H]3CC[C@H]4C(C)(C)[C@@H](OC5CN(C(=O)C(C)C)CCO5)CC[C@@]45C[C@@]35CC[C@]21C)C(C)(C)O (stereo partly drawn)", "< 1000 nM"),
    ("C[C@@H]1CC(C(O)C(C)(C)C)OC2[C@H]1[C@@]1(C)CC[C@@]34C[C@@]35CC[C@H](O[C@H]3CN(C6COC6)CCO3)C(C)(C)[C@@H]5CCC4[C@]1(C)[C@H]2O (stereo partly drawn)", "< 1000 nM"),
    ("CC(C)O[C@@H](C1C[C@@H](C)[C@H]2C(O1)[C@H](O)[C@@]1(C)C3CC[C@H]4C(C)(C)C(O[C@H]5CN(C6COC6)CCO5)CC[C@@]45C[C@@]35CC[C@]21C)C(C)(C)O (stereo partly drawn)", "< 1000 nM"),
    ("CC(C)[C@@H](OC(=O)N1CCC1)C1C[C@@H](C)[C@H]2C(O1)[C@H](O)[C@@]1(C)C3CC[C@H]4C(C)(C)C(OC(=O)N5CC6(COC6)C5)CC[C@@]45C[C@@]35CC[C@]21C (stereo partly drawn)", "< 1000 nM"),
    ("CC(C)[C@@H](OC(=O)N1CCC1)C1C[C@@H](C)[C@H]2C(O1)[C@H](O)[C@@]1(C)C3CC[C@H]4C(C)(C)C(OC(=O)N5CCn6ccnc6C5)CC[C@@]45C[C@@]35CC[C@]21C (stereo partly drawn)", "< 1000 nM"),
    ("CO[C@@H](C1C[C@@H](C)[C@H]2C(O1)[C@H](O)[C@@]1(C)C3CC[C@H]4C(C)(C)C(OC(=O)N5CCC5)CC[C@@]45C[C@@]35CC[C@]21C)C(C)(C)O (stereo partly drawn)", "1000 to 10000 nM"),
    ("CCC(=O)O[C@@H]([C@H]1C[C@@H](C)C2C(O1)[C@H](O)[C@@]1(C)[C@@H]3CC[C@H]4C(C)(C)[C@@H](O)CC[C@@]45C[C@@]35CC[C@]21C)C(C)(C)O (stereo partly drawn) [drawing 1197]", "> 10000 nM"),
    ("CC(C)CC(=O)OCC1C[C@@H](C)[C@H]2C(O1)[C@H](O)[C@@]1(C)C3CC[C@H]4C(C)(C)[C@@H](O[C@H]5CN(C6COC6)CCO5)CC[C@@]45C[C@@]35CC[C@]21C (stereo partly drawn)", "1000 to 10000 nM"),
    ("CCO[C@@H]([C@H]1C[C@@H](C)[C@H]2[C@H](O1)[C@H](O)[C@@]1(C)[C@@H]3CC[C@H]4C(C)(C)[C@@H](OC5CNCCO5)CC[C@@]45C[C@@]35CC[C@]21C)C(C)(C)O (stereo partly drawn)", "< 1000 nM"),
]
